System: HeLa
Assay: Antiproliferative activity against human HeLa cells assessed as growth inhibition measured after 48 hrs by sulforhodamine B assay
Assay type: functional
PROPERTY NAME: GI50 (nM)
One number for each entry, in nM.

COMPOUND	TARGET OR TEST SYSTEM	UNIT LABEL	GI50
C[C@]12C[C@H]3O[C@H]3C[C@@H]1CC[C@@H]1[C@@H]2CC[C@]2(C)C(=O)CC[C@@H]12	HeLa	nM	19200
C[C@]12C[C@H]3O[C@H]3C[C@@H]1CC[C@@H]1[C@@H]2CC[C@]2(C)C=CC(=O)[C@@H]12	HeLa	nM	9200
CO[C@@H]1CC(=O)[C@@]2(C)CC[C@H]3[C@@H](CC(=O)[C@H]4CC=CC[C@@]43C)[C@H]12	HeLa	nM	19400
C[C@]12CC[C@H](O)C[C@@H]1CC[C@@H]1[C@@H]2CC[C@]2(C)C(=O)C=C[C@@H]12	HeLa	nM	420
CC(C)(C)OC(=O)N1[C@@H]2C[C@@]3(C)[C@@H](CC[C@H]4[C@@H]5[C@@H]6O[C@@H]6C(=O)[C@@]5(C)CC[C@@H]43)C[C@@H]21	HeLa	nM	640

For each listed entry, give its GI50.
1. C[C@]12CC=CC[C@@H]1[C@@H](O)C[C@@H]1[C@@H]2CC[C@]2(C)C(=O)C=C[C@@H]12
2. C[C@]12C[C@@H]3N[C@@H]3C[C@@H]1CC[C@H]1[C@@H]3[C@@H]4O[C@@H]4C(=O)[C@@]3(C)CC[C@@H]12

Reply:
[277, 470]

For each listed entry, give its GI50.
1. Cc1ccc(S(=O)(=O)N2[C@@H]3C[C@@]4(C)[C@@H](CC[C@H]5[C@@H]6[C@@H]7O[C@@H]7C(=O)[C@@]6(C)CC[C@@H]54)C[C@@H]32)cc1 (some centres not stated)
2. C[C@]12C[C@H]3O[C@H]3C[C@@H]1[C@@H](O)C[C@H]1[C@@H]3[C@@H]4O[C@@H]4C(=O)[C@@]3(C)CC[C@@H]12
3. C[C@]12CC=CC[C@@H]1[C@@H](O)C[C@H]1[C@@H]3[C@@H]4O[C@@H]4C(=O)[C@@]3(C)CC[C@@H]12

Reply:
1: 450; 2: 2010; 3: 710
